Exercise: for every item that follows, state its recorded IC50.
Target: Integrin alpha-4/beta-1 (Homo sapiens, UniProt P05556+P13612)
Sequence (P05556 whole entry): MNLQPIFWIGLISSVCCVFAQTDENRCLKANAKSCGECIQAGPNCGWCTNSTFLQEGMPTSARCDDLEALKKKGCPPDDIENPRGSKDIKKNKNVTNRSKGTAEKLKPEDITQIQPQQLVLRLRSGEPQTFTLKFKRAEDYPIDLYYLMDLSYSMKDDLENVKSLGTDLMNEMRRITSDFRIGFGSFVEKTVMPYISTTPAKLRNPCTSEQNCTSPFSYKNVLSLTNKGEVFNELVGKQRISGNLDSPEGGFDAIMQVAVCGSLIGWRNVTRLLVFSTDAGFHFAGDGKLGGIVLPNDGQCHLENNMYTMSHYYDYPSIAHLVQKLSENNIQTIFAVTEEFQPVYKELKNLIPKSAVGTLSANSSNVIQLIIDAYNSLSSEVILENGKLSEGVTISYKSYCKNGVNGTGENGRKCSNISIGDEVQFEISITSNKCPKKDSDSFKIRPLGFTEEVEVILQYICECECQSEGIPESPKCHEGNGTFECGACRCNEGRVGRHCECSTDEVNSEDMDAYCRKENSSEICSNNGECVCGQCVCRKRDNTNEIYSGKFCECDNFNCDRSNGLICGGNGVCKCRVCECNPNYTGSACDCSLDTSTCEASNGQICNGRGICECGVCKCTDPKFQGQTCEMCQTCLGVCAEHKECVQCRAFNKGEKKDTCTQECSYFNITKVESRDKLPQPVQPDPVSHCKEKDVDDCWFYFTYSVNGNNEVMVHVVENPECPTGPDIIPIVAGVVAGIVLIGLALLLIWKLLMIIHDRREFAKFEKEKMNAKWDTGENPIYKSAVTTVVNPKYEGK
Sequence (P13612 whole entry): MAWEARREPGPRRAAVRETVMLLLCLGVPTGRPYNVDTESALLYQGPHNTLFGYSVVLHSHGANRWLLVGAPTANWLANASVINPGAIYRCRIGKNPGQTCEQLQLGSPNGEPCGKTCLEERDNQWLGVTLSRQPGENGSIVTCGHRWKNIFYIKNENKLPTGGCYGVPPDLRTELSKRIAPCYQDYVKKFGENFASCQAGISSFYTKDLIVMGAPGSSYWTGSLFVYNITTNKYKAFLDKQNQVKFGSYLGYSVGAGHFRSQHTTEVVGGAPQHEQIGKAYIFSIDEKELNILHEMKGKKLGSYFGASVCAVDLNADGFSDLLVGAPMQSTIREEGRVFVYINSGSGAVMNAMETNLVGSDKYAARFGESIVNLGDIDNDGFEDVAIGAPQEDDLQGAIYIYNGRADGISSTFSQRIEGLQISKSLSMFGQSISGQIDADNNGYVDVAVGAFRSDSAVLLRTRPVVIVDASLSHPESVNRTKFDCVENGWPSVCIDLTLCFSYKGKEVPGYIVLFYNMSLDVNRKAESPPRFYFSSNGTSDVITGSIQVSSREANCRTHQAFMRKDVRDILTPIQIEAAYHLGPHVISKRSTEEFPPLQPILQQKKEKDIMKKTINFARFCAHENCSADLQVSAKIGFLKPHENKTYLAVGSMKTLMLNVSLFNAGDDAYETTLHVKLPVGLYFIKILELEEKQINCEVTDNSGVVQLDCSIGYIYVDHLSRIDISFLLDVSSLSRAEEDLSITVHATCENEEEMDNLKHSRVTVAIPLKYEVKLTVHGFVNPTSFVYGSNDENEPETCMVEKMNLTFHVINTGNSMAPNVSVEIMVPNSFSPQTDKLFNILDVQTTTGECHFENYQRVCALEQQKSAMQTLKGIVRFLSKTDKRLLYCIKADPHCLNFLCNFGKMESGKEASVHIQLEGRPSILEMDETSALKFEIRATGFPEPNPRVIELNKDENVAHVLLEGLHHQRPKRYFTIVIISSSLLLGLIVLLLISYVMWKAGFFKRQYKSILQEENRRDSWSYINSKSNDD
Experiment: Inhibition of integrin alpha4beta1-mediated Jurkat cell adhesion to VCAM-1 by FACS analysis
Your answer is read as nM, so omit the unit and give the number.

Request: State recorded IC50 with Integrin alpha-4/beta-1 (Homo sapiens, UniProt P05556+P13612), entry `CN(C)C(=O)Oc1ccc(C[C@H](Nc2ncnc3ccccc23)C(=O)O)cc1` , no comment.
Result: 190

Request: State recorded IC50 with Integrin alpha-4/beta-1 (Homo sapiens, UniProt P05556+P13612), entry `CN(C)C(=O)Oc1ccc(C[C@H](NC(=O)c2ccccc2)C(=O)O)cc1` , no comment.
Result: 130

Request: State recorded IC50 with Integrin alpha-4/beta-1 (Homo sapiens, UniProt P05556+P13612), entry `CN(C)C(=O)Oc1ccc(C[C@H](Nc2ncncc2-c2ccccc2)C(=O)O)cc1` , no comment.
Result: 300

Request: State recorded IC50 with Integrin alpha-4/beta-1 (Homo sapiens, UniProt P05556+P13612), entry `CCN(C)c1ncc(-c2ccccc2C)c(N[C@@H](Cc2ccc(OC(=O)N(C)C)cc2)C(=O)O)n1` , no comment.
Result: 5.3

Request: State recorded IC50 with Integrin alpha-4/beta-1 (Homo sapiens, UniProt P05556+P13612), entry `Cc1ccccc1-c1cnc(N(C)C2CCN(C)CC2)nc1N[C@@H](Cc1ccc(OC(=O)N(C)C)cc1)C(=O)O` , no comment.
Result: 68

Request: State recorded IC50 with Integrin alpha-4/beta-1 (Homo sapiens, UniProt P05556+P13612), entry `CN(C)C(=O)Oc1ccc(C[C@H](Nc2ncncc2-c2ccccc2C(F)(F)F)C(=O)O)cc1` , no comment.
Result: 90

Request: State recorded IC50 with Integrin alpha-4/beta-1 (Homo sapiens, UniProt P05556+P13612), entry `CCCN(CC)c1ncc(-c2ccccc2C)c(N[C@@H](Cc2ccc(OC(=O)N(C)C)cc2)C(=O)O)n1` , no comment.
Result: 4.9

----------
Target: Integrin alpha-4/beta-1 (Homo sapiens, UniProt P05556+P13612)
Assay: Inhibition of integrin alpha4beta1-mediated Jurkat cell adhesion to VCAM-1 by FACS analysis
MEASURED PROPERTY: IC50 (nM)
Your answer is read as nM, so omit the unit and give the number.

Request: State recorded IC50 with Integrin alpha-4/beta-1 (Homo sapiens, UniProt P05556+P13612), entry `Cc1ccccc1-c1cnc(N(C)c2ccc(Cl)cc2)nc1N[C@@H](Cc1ccc(OC(=O)N(C)C)cc1)C(=O)O` , no comment.
Result: 107

Request: State recorded IC50 with Integrin alpha-4/beta-1 (Homo sapiens, UniProt P05556+P13612), entry `COc1ccccc1-c1cncnc1N[C@@H](Cc1ccc(OC(=O)N(C)C)cc1)C(=O)O` , no comment.
Result: 16

Request: State recorded IC50 with Integrin alpha-4/beta-1 (Homo sapiens, UniProt P05556+P13612), entry `CN(C)C(=O)Oc1ccc(C[C@H](Nc2ncncc2-c2cccnc2)C(=O)O)cc1` , no comment.
Result: 130

Request: State recorded IC50 with Integrin alpha-4/beta-1 (Homo sapiens, UniProt P05556+P13612), entry `Cc1ccccc1-c1cnc(N(C)C2CCCCC2)nc1N[C@@H](Cc1ccc(OC(=O)N(C)C)cc1)C(=O)O` , no comment.
Result: 20

----------
Assay: Bioavailability in Beagle dog at 3 mg/kg, iv and 10 mg/kg, po
Type: ADME, organism-based, Canis lupus familiaris
Settings: in vivo
MEASURED PROPERTY: bioavailability (%)
Your answer is read as %, so omit the unit and give the number.

Request: Fill in reported bioavailability for this entry: `CCN(CC)c1ncc(-c2c(C)noc2C)c(N[C@@H](Cc2ccc(OC(=O)N(C)C)cc2)C(=O)O)n1`
Result: 59

----------
Exercise: for every item that follows, state its recorded pIC50.
Target: Integrin alpha-4/beta-1 (Homo sapiens, UniProt P05556+P13612)
Assay: Inhibition of integrin alpha4beta1-mediated Jurkat cell adhesion to VCAM-1 by FACS analysis
Note on units: pIC50 is unitless, being -log10 of a concentration expressed in mol/L.

Request: Fill in reported pIC50 for this entry: `CN(C)C(=O)Oc1ccc(C[C@H](Nc2ncncc2-c2ccncc2)C(=O)O)cc1`
Result: 7.07

Request: Fill in reported pIC50 for this entry: `CN(C)C(=O)Oc1ccc(C[C@H](Nc2ncncc2-c2cccc(Cl)c2Cl)C(=O)O)cc1`
Result: 7.11

Request: Fill in reported pIC50 for this entry: `Cc1ccccc1-c1cnc(N(C)C2CCC2)nc1N[C@@H](Cc1ccc(OC(=O)N(C)C)cc1)C(=O)O`
Result: 8.00

Request: Fill in reported pIC50 for this entry: `Cc1ccccc1-c1cnc(N(C)CC(C)C)nc1N[C@@H](Cc1ccc(OC(=O)N(C)C)cc1)C(=O)O`
Result: 8.15

Request: Fill in reported pIC50 for this entry: `Cc1ccsc1-c1cncnc1N[C@@H](Cc1ccc(OC(=O)N(C)C)cc1)C(=O)O`
Result: 8.30

Request: Fill in reported pIC50 for this entry: `CCN(CC)c1ncc(-c2ccccc2C)c(N[C@@H](Cc2ccc(OC(=O)N(C)C)cc2)C(=O)O)n1`
Result: 8.24

Request: Fill in reported pIC50 for this entry: `CN(C)C(=O)Oc1ccc(C[C@H](Nc2ncncc2-c2ccc[nH]2)C(=O)O)cc1`
Result: 7.12

Request: Fill in reported pIC50 for this entry: `CN(C)C(=O)Oc1ccc(C[C@H](Nc2ncncc2-c2cccc([N+](=O)[O-])c2)C(=O)O)cc1`
Result: 6.74

Request: Fill in reported pIC50 for this entry: `Cc1ccccc1-c1cnc(N(C)C)nc1N[C@@H](Cc1ccc(OC(=O)N(C)C)cc1)C(=O)O`
Result: 7.54

Request: Fill in reported pIC50 for this entry: `Cc1ccccc1-c1cncnc1N[C@@H](Cc1ccc(OC(=O)N(C)C)cc1)C(=O)O`
Result: 7.60

Request: Fill in reported pIC50 for this entry: `Cc1cc(C)c(-c2cncnc2N[C@@H](Cc2ccc(OC(=O)N(C)C)cc2)C(=O)O)c(C)c1`
Result: 7.00

Request: Fill in reported pIC50 for this entry: `CN(C)C(=O)Oc1ccc(C[C@H](Nc2ncncc2-c2ccccc2F)C(=O)O)cc1`
Result: 7.74

Request: Fill in reported pIC50 for this entry: `CN(C)C(=O)Oc1ccc(C[C@H](Nc2ncncc2-c2c(F)cccc2F)C(=O)O)cc1`
Result: 7.57

Request: Fill in reported pIC50 for this entry: `CN(C)C(=O)Oc1ccc(C[C@H](Nc2ncncc2-c2cccs2)C(=O)O)cc1`
Result: 7.80

Request: Fill in reported pIC50 for this entry: `CN(C)C(=O)Oc1ccc(C[C@H](Nc2nc(N(C)C3CCCCC3)nc3ccccc23)C(=O)O)cc1`
Result: 8.10

Request: Fill in reported pIC50 for this entry: `Cc1ccccc1-c1cnc(N(C)C2CC2)nc1N[C@@H](Cc1ccc(OC(=O)N(C)C)cc1)C(=O)O`
Result: 7.70

Request: Fill in reported pIC50 for this entry: `Cc1ccccc1-c1cnc(N2CCCCC2)nc1N[C@@H](Cc1ccc(OC(=O)N(C)C)cc1)C(=O)O`
Result: 7.49

----------
Experiment: Clearance in cynomolgus monkey at 3 mg/kg, iv and 10 mg/kg, po
Format: ADME, organism-based, Macaca fascicularis
Settings: in vivo
MEASURED PROPERTY: clearance

Request: Fill in reported clearance for this entry: `CCN(CC)c1ncc(-c2c(C)noc2C)c(N[C@@H](Cc2ccc(OC(=O)N(C)C)cc2)C(=O)O)n1`
Result: 13.5 mL/min/kg

----------
Test: Volume of distribution in cynomolgus monkey at 3 mg/kg, iv and 10 mg/kg, po
Type: ADME, organism-based, Macaca fascicularis
Details: in vivo
MEASURED PROPERTY: Vd (L/kg)
Your answer is read as L/kg, so omit the unit and give the number.

Request: Fill in reported Vd for this entry: `CCN(CC)c1ncc(-c2c(C)noc2C)c(N[C@@H](Cc2ccc(OC(=O)N(C)C)cc2)C(=O)O)n1`
Result: 1.29

----------
Assay: Volume of distribution in Beagle dog at 3 mg/kg, iv and 10 mg/kg, po
Format: ADME, organism-based, Canis lupus familiaris
Settings: in vivo
MEASURED PROPERTY: Vd (L/kg)
Your answer is read as L/kg, so omit the unit and give the number.

Request: Fill in reported Vd for this entry: `CCN(CC)c1ncc(-c2c(C)noc2C)c(N[C@@H](Cc2ccc(OC(=O)N(C)C)cc2)C(=O)O)n1`
Result: 0.524

----------
Test: Drug excretion in Sprague-Dawley rat bile at 10 mg/kg, po
Type: ADME, organism-based
Design: dose 10 mg/kg, route oral
Details: read-out: Activity
MEASURED PROPERTY: dose excreted

Request: Fill in reported dose excreted for this entry: `Cc1ccccc1-c1cnc(N(C)C2CCCCC2)nc1N[C@@H](Cc1ccc(OC(=O)N(C)C)cc1)C(=O)O`
Result: < 3%
